Values from PubChem BioAssay (NCI)

Measured TGI by item
- Test system: MALME-3M melanoma
- test_name: NCI tumour cell line growth inhibition, 48 h
outcome_measure: TGI (µM)

> print(dat)
                                    compound          tested.on  outcome.measure  unit.tag  bound.type  data.value
 1  Cc1cc(Br)cc(C)c1NC(=O)C(=O)C(C(=O)c1ccc2ccccc2c1)C1OC(=O)c2ccccc21 (stereo not given)  MALME-3M melanoma              TGI        µM           =        34.5
 2  CC1=Nc2ccccc2C1C(Cc1ccccc1N)c1c(C)[nH]c2ccccc12 (stereo not given)  MALME-3M melanoma              TGI        µM           =          31
 3  COCCOc1cc(F)c2c(Nc3ccc(NC(=O)Cn4cc(C(C)C)nn4)cc3)ncnc2c1  MALME-3M melanoma              TGI        µM           >         100
 4      O=C1N=c2ccccc2=C1c1c(O)[nH]c2ccccc12  MALME-3M melanoma              TGI        µM           =        35.5
 5  COc1cc(/C=C2\CCC(C)C3C2=NN(C(C)=O)C3c2cc(OC)c(OC)c(OC)c2)cc(OC)c1OC (stereo not given)  MALME-3M melanoma              TGI        µM           >         100
 6                        O=C(O)c1n[nH]nc1Cl  MALME-3M melanoma              TGI        µM           >         100
 7  CCOc1nc(-c2ccccc2)cc2c(O)c(-c3nnco3)[nH]c(=O)c12  MALME-3M melanoma              TGI        µM           >         100
 8     NS(=O)(=O)c1nn2c(Br)c(-c3ccccc3)nc2s1  MALME-3M melanoma              TGI        µM           =        13.7
 9  Cc1ccc(Cl)cc1Nc1nc(C(F)(F)F)ccc1C(=O)N1CCN(c2ccc(F)cc2)CC1  MALME-3M melanoma              TGI        µM           =        23.4
10  CN(c1ccc(Cl)cc1)S(=O)(=O)c1cccc([N+](=O)[O-])c1  MALME-3M melanoma              TGI        µM           >         100

====

- Test system: SF-539 CNS
- test_name: NCI tumour cell line growth inhibition, 48 h; in the data active = GI50 below about 0.43 µM; inactive = the rest
Labels: active, inactive

> print(dat)
                                    compound  group.label
 1  Cc1ccc(C(SCC(N)C(=O)O)(c2ccccc2)c2ccc(C)cc2)cc1 (stereo unspecified)       active
 2  COc1cc(C(=O)c2cc(C)c3[nH]c4ccc(Cl)cc4c3c2C)cc(OC)c1OC       active
 3  C/C(=C\CCc1ccoc1)CC/C=C(\C)CCCC1=CC(=O)OC1     inactive
 4  CC1OC2CC(=O)OC2C2=C1C(=O)c1c(O)cccc1C2=O (stereo unspecified)       active
 5  Cn1cc(C2=C(c3ccc4ccccc4c3)C(=O)NC2=O)c2ccccc21     inactive
 6  COc1cc(Nc2cn[nH]c2-c2ccc(Cl)cc2)cc(OC)c1OC     inactive
 7  CCOC(=O)/C=C/C(C(=O)/C=C/c1ccc(OC2CCCCO2)c(OC)c1)=C(O)\C=C\c1ccc(OC2CCCCO2)c(OC)c1 (stereo unspecified)     inactive
 8  COc1ccc(N2C(=O)C(c3ccccc3)(c3ccccc3)C23C(=O)N(C)c2ccccc23)cc1 (stereo unspecified)     inactive
 9  CC(C)=C[C@@H]1C[C@H](C)[C@H]2CC[C@H](C)C3=C2[C@](O)(OC3=O)[C@]1(C)O     inactive
10  CC(O)C(N=Cc1ccccc1[O-])C(=O)[O-].CC(O)C(N=Cc1ccccc1[O-])C(=O)[O-].[Co+2] (stereo unspecified)     inactive
11  COc1ccc(C(=O)c2cc(OC)c(C)c(OC)c2)cc1OC(=O)CCl       active

====

- Test system: HCT-116 colon
- test_name: NCI tumour cell line growth inhibition, 48 h; in the data active means GI50 below about 0.43 µM; inactive means the rest
Labels: active, inactive

compound	tested_on	group_label
Ic1ccc(Nc2nc3nonc3nc2Nc2ccc(I)cc2)cc1	HCT-116 colon	active
C=C(C)[C@@]12OC3(/C=C/C=C/CCCCC)O[C@@H]1[C@@H]1[C@@H]4O[C@]4(CO)[C@@H](O)[C@]4(O)C(=O)C(C)=C[C@H]4[C@@]1(O3)[C@H](C)[C@H]2OC(=O)c1ccccc1	HCT-116 colon	inactive
Cc1c2cccnc2c(C)c2c1c1cc(CO)ccc1n2C	HCT-116 colon	active
C=C(F)C(=O)N1CCN(c2nc(OC[C@@H]3CCCN3C)nc3c2CCN(c2cccc4cccc(Cl)c24)C3)C[C@@H]1CC#N	HCT-116 colon	inactive
Clc1coc2nc3ccccc3c(Nc3ccc4c(c3)OCO4)c12	HCT-116 colon	inactive
COc1ncnc(C2CC2)c1-c1ncc2cnn(Cc3ccc(-c4nc(C(F)(F)F)cn4C(C)C)cc3)c2n1	HCT-116 colon	inactive
CC1OC2CC(=O)OC2C2=C1C(=O)c1c(O)cccc1C2=O (stereo unspecified)	HCT-116 colon	active
CCOc1nc(-c2ccccc2)cc2c(O)c(-c3nnco3)[nH]c(=O)c12	HCT-116 colon	inactive
Cn1cc(C2=C(c3ccc4ccccc4c3)C(=O)NC2=O)c2ccccc21	HCT-116 colon	inactive
C[C@H]1c2cccc(O)c2C(O)=C2C(=O)[C@]3(O)C(O)=C(C(N)=O)C(=O)[C@@H](N(C)C)[C@@H]3[C@@H](O)[C@@H]21	HCT-116 colon	inactive
Cc1ccc(Cl)cc1Nc1nc(C(F)(F)F)ccc1C(=O)N1CCN(c2ccc(F)cc2)CC1	HCT-116 colon	inactive

====

- Tested on: MOLT-4 leukemia
- test_name: NCI tumour cell line growth inhibition, 48 h; in the data active = GI50 below about 0.43 µM; inactive = the rest
Labels: active, inactive

> print(dat)
                                   compound  group.label
1  C#Cc1cccc(Nc2ncnc3cc(OC)c(OCCCCCCC(=O)NO)cc23)c1       active
2  CCOC(=O)Oc1c(OC)cc(C(=O)NC2CCc3cc(OC)c(OC)c(OC)c3-c3ccc(SC)c(=O)cc32)cc1OC (stereo not given)       active
3  COc1ncnc(C2CC2)c1-c1ncc2cnn(Cc3ccc(-c4nc(C(F)(F)F)cn4C(C)C)cc3)c2n1     inactive
4  O=[N+]([O-])c1ccc(C=C2C(Cl)=C(Cl)C(Cl)=C2Cl)cc1     inactive
5  COC(=O)/C=C/c1cc(O)c2oc(-c3ccc(O)c(O)c3)c(C(=O)OC)c2c1     inactive

====

- System: CAKI-1 renal
- test_name: NCI tumour cell line growth inhibition, 48 h

compound	TGI
NC(=O)C(N)Cc1ccc(O)cn1 (configuration not stated)	> 100 µM
C=C(C)[C@@]12OC3(/C=C/C=C/CCCCC)O[C@@H]1[C@@H]1[C@@H]4O[C@]4(CO)[C@@H](O)[C@]4(O)C(=O)C(C)=C[C@H]4[C@@]1(O3)[C@H](C)[C@H]2OC(=O)c1ccccc1	0.0347 µM
O=S(=O)([O-])c1ccc2c(c1)-c1nc-2nc2[n-]c(nc3nc(nc4[n-]c(n1)c1ccc(S(=O)(=O)[O-])cc41)-c1cc(S(=O)(=O)[O-])ccc1-3)c1ccc(S(=O)(=O)[O-])cc21.[Cu+2].[Na+]	> 100 µM
Cc1cc(C)c(S(=O)(=O)N2CCCN(S(=O)(=O)c3c(C)cc(C)cc3C)OCCCON(S(=O)(=O)c3c(C)cc(C)cc3C)CCCN(S(=O)(=O)c3c(C)cc(C)cc3C)OCCCO2)c(C)c1	> 100 µM
CC[N+](CC)(CCNCC(N)=O)CC(N)=O	> 10 µM
CC(C)(Cc1ccccc1)NC1=NCCO1	> 100 µM
Cc1ccccc1N1C(=O)/C(=C/c2ccc(N(CCC#N)CCC#N)cc2)N=C1c1cc([N+](=O)[O-])ccc1Cl	> 100 µM

====

- Tested on: UO-31 renal
- test_name: NCI tumour cell line growth inhibition, 48 h; in the data active = GI50 below about 0.43 µM; inactive = the rest
Labels: active, inactive

> print(dat)
                                   compound  group.label
1  C=C(F)C(=O)N1CCN(c2nc(OC[C@@H]3CCCN3C)nc3c2CCN(c2cccc4cccc(Cl)c24)C3)C[C@@H]1CC#N     inactive
2  CNCCCn1cc(C2=C(c3cn(C)c4ccccc34)C(=O)NC2=O)c2ccccc21     inactive
3  CCOC(=O)/C=C/C(C(=O)/C=C/c1ccc(OC2CCCCO2)c(OC)c1)=C(O)\C=C\c1ccc(OC2CCCCO2)c(OC)c1 (centres undefined)     inactive
4  COc1ccc(C(=O)c2cc(OC)c(C)c(OC)c2)cc1OC(=O)CCl     inactive
5  CC(SC(C)C(=O)N/N=C/c1cccc(Cl)c1)C(=O)N/N=C\c1cccc(Cl)c1 (centres undefined)     inactive
6  COc1ccc2c(c1)CCC1C2CC[C@@]2(C)C1CC1=CC(COC(C)=O)C3C(=O)c4ccccc4C(=O)C3C12 (some centres undefined)     inactive
7  COc1ccc(N2C(=O)C(c3ccccc3)(c3ccccc3)C23C(=O)N(C)c2ccccc23)cc1 (centres undefined)     inactive
8  CC/C(=C(/c1ccc(OCCN(C)C)cc1)c1ccc(OC(=O)CCCCC(=O)c2c(C)[nH]c(/C=C3\N=C(c4ccc[nH]4)C=C3OC)c2C)cc1)c1ccccc1     inactive
9  C#Cc1cccc(Nc2ncnc3cc(OC)c(OCCCCCCC(=O)NO)cc23)c1       active
